target: human recombinant adrenergic α2B receptor (Homo sapiens, UniProt P18089); construct: expressed in transfected cells; host or cells: CHO-K1; assay: Radioligand binding, adrenergic α2B receptor ([3H]Rauwolscine); settings: 0.03 μM compound, CHO-K1 cells, read-out: Percentage inhibition of ligand binding, Adrenergic α2B
parameter_measured: inhibition at 0.03 µM (%)
Reply with just the number (in %).

Observe how each entry below is paired with its result.
- Cc1csc(-c2cscc2-n2c3c(c4cc(C)ccc42)CN(C)CC3)c1 [Compound 50]: 97
- Cc1ccc2c(c1)c1c(n2-c2ccccc2-c2cccn2C)CCN(C)C1 [Compound No. 100]: 103
- Cc1ccc2c(c1)c1c(n2-c2cscc2-c2ccc3cnccc3c2)CCN(C)C1 [Compound No. 68]: 71
- Cc1ccc2c(c1)c1c(n2-c2cscc2-c2ccc3c(ccn3C)c2)CCN(C)C1 [Compound 33]: 100
- COc1ccc(-c2cscc2-n2c3c(c4cc(C)ccc42)CN(C)CC3)cc1 [Compound 37]: 104

input: If you can, please state the reported inhibition at 0.03 µM value of Cc1ccc2c(c1)c1c(n2-c2cscc2-c2ccc(S(C)(=O)=O)cc2)CCN(C)C1 [Compound No. 76] .
output: 89

input: If you can, please state the reported inhibition at 0.03 µM value of Cc1ccc2c(c1)c1c(n2-c2cscc2-c2ccc(C)s2)CCN(C)C1 [Compound No. 79] .
output: 102

input: If you can, please state the reported inhibition at 0.03 µM value of Cc1ccc2c(c1)c1c(n2-c2ccccc2-c2ccc3c(ccn3C)c2)CCN(C)C1 [Compound No. 85] .
output: 89

input: If you can, please state the reported inhibition at 0.03 µM value of Cc1ccc2c(c1)c1c(n2-c2ccccc2-c2cn[nH]c2)CCN(C)C1 [Compound No. 104] .
output: 61

* * *

biological target: human recombinant adrenergic α1D receptor (Homo sapiens, UniProt P25100); construct: expressed in transfected cells; host or cells: HEK-293; assay: Radioligand binding, adrenergic α1D receptor ([3H]Prazosin); conditions: 0.1 μM compound; HEK-293 cells; 0.6 nM [3H]Prazosin; read-out: Percentage inhibition of ligand binding, Adrenergic α1D
Sequence (P25100 whole entry): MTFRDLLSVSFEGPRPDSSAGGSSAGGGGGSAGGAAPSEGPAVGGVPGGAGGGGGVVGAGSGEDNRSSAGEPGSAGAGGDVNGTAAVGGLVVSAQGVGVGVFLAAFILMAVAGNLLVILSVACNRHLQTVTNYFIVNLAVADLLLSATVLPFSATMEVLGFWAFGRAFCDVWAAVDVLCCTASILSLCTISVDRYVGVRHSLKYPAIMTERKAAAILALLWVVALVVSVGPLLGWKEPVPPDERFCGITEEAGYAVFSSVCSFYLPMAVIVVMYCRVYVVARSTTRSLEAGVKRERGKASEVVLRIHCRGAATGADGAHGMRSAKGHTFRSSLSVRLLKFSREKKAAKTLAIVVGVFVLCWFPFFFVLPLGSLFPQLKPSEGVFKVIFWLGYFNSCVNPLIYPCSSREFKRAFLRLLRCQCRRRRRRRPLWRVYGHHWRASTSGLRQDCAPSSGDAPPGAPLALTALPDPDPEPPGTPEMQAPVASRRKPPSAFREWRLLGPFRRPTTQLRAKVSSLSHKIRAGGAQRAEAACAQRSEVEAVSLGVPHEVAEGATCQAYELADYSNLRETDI
parameter_measured: inhibition at 0.1 µM (%)
Reply with just the number (in %).

Observe how each entry below is paired with its result.
* Cc1ccc2c(c1)c1c(n2-c2cccc(-c3ccc(C)nc3)c2)CCN(C)C1 | 9
* Cc1ccc2c(c1)c1c(n2-c2cccc(-c3ccc(F)cc3)c2)CCN(C)C1 | 5
* Cc1ccc2c(c1)c1c(n2-c2cccc(-c3ccc4[nH]cnc4c3)c2)CCN(C)C1 | -3
* CNC(=O)c1ccc(-c2cscc2-n2c3c(c4cc(C)ccc42)CN(C)CC3)cn1 | 83

input: If you can, please state the reported inhibition at 0.1 µM value of Cc1ccc2c(c1)c1c(n2-c2ccccc2-c2sccc2C)CCN(C)C1 .
output: 50

input: If you can, please state the reported inhibition at 0.1 µM value of Cc1ccc2c(c1)c1c(n2-c2ccccc2-c2ccc3c(ccn3C)c2)CCN(C)C1 .
output: 62

input: If you can, please state the reported inhibition at 0.1 µM value of Cc1ccc2c(c1)c1c(n2-c2cccc(-c3ccc4c(ccn4C)c3)c2)CCN(C)C1 .
output: 0

input: If you can, please state the reported inhibition at 0.1 µM value of Cc1ccc2c(c1)c1c(n2-c2cscc2-c2cccc3[nH]ncc23)CCN(C)C1 .
output: 76

input: If you can, please state the reported inhibition at 0.1 µM value of Cc1ccc2c(c1)c1c(n2-c2cccc(-c3ccc(O)nc3)c2)CCN(C)C1 .
output: -3

input: If you can, please state the reported inhibition at 0.1 µM value of Cc1ccc2c(c1)c1c(n2-c2cscc2C(=O)N(C)C)CCN(C)C1 .
output: 16

input: If you can, please state the reported inhibition at 0.1 µM value of CNC(=O)c1ccc(-c2cccc(-n3c4c(c5cc(C)ccc53)CN(C)CC4)c2)cn1 .
output: 15

input: If you can, please state the reported inhibition at 0.1 µM value of Cc1ccc2c(c1)c1c(n2-c2ccccc2-c2cccn2C)CCN(C)C1 .
output: 64

input: If you can, please state the reported inhibition at 0.1 µM value of Cc1ccc2c(c1)c1c(n2-c2ccccc2-c2c(C)noc2C)CCN(C)C1 .
output: 14

input: If you can, please state the reported inhibition at 0.1 µM value of CC(=O)Nc1ccc(-c2ccc(-n3c4c(c5cc(C)ccc53)CN(C)CC4)nc2)cn1 .
output: 45

* * *

Biological target: human recombinant adrenergic α2B receptor (Homo sapiens, UniProt P18089)
Construct: expressed in transfected cells; host or cells: CHO-K1
Sequence (P18089 1-450): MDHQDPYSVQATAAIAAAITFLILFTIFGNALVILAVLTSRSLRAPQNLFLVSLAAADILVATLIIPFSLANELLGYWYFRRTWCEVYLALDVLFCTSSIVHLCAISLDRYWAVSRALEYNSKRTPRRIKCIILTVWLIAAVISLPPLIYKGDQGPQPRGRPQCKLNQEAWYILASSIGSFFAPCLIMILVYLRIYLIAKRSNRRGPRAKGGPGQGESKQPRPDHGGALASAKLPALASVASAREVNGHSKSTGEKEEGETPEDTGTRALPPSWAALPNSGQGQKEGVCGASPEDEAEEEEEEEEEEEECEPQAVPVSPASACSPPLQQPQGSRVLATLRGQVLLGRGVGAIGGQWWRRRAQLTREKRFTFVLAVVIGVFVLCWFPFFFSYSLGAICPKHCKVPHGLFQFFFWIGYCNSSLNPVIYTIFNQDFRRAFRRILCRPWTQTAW
Experiment: Radioligand binding, adrenergic α2B receptor ([3H]Rauwolscine)
Settings: 0.1 μM compound, CHO-K1 cells, read-out: Percentage inhibition of ligand binding, Adrenergic α2B
The reader will find reported inhibition at 0.1 µM values listed item by item below.
Reply with just the number (in %).

Observe how each entry below is paired with its result.
* Cc1ccc2c(c1)c1c(n2-c2ccccc2-c2ccnn2C)CCN(C)C1 | 80
* Cc1ccc2c(c1)c1c(n2-c2cscc2-c2cnn(C)c2)CCN(C)C1 | 86
* Cc1ccc2c(c1)c1c(n2-c2ccccc2-c2cn[nH]c2)CCN(C)C1 | 87

Turning now to a further compound:
input: Kindly state the measured inhibition at 0.1 µM obtained for Cc1ccc2c(c1)c1c(n2-c2ccc(-c3ccncc3)cn2)CCN(C)C1 with human recombinant adrenergic α2B receptor (Homo sapiens, UniProt P18089).
output: 69

* * *

biological target: rat adrenergic α1B receptor (Rattus norvegicus); construct: rat adrenergic α1B receptor obtained from Wistar Rat liver; from tissue; host or cells: Wistar rat liver; assay: Radioligand binding, adrenergic α1B receptor ([3H]Prazosin); settings: 0.1 μM compound, Wistar rat liver, read-out: Percentage inhibition of ligand binding, Adrenergic α1B
Sequence (P15823 whole entry): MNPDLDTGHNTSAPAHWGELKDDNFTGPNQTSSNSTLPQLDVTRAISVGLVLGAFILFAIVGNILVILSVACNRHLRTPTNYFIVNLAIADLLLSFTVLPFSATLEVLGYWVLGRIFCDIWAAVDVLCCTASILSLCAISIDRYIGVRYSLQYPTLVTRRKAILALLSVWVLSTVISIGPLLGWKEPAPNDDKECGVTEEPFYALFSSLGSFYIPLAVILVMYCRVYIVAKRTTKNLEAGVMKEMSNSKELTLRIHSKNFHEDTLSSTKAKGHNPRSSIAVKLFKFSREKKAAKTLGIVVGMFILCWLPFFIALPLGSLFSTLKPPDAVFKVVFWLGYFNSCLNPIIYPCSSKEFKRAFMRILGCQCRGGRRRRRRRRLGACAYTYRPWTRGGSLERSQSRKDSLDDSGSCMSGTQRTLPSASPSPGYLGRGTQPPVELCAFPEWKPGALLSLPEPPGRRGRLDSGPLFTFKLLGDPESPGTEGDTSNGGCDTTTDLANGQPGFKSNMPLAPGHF
The reader will find reported inhibition at 0.1 µM values listed item by item below.
Reply with just the number (in %).

Observe how each entry below is paired with its result.
• COc1ccc(-c2cscc2-n2c3c(c4cc(C)ccc42)CN(C)CC3)cc1 [Compound 37] = 77
• CNC(=O)c1ccc(-c2ccccc2-n2c3c(c4cc(C)ccc42)CN(C)CC3)cc1 [Compound No. 72] = 28
• Cc1ccc2c(c1)c1c(n2-c2ccccc2-c2ccc(C)nc2)CCN(C)C1 [Compound 59] = 47

input: If you can, please state the reported inhibition at 0.1 µM value of Cc1ccc2c(c1)c1c(n2-c2ccc3c(c2)CCN(C=O)C3)CCN(C)C1 [Compound No. 77] .
output: 15

* * *

The reader will find reported inhibition at 0.1 µM values listed item by item below.
Biological target: human recombinant adrenergic α2A receptor (Homo sapiens, UniProt P08913)
Construct: expressed in transfected cells; host or cells: insect Sf9 cells
Sequence (P08913 1-465): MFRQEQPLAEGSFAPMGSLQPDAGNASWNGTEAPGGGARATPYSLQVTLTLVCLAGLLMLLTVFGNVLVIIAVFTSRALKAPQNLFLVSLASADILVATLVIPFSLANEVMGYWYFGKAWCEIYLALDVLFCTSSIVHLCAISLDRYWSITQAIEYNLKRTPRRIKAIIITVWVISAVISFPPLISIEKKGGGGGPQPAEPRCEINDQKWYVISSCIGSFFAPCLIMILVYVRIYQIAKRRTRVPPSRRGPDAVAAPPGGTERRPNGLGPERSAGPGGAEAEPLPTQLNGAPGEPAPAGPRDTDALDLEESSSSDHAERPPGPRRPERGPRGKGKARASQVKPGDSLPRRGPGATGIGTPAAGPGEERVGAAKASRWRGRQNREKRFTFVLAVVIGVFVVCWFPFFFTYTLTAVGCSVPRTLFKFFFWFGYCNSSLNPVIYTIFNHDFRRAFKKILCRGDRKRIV
Experiment: Radioligand binding, adrenergic α2A receptor ([3H]MK-912)
Conditions: 0.1 μM compound; Sf9 cells; 1 nM [3H]MK-912; read-out: Percentage inhibition of ligand binding, Adrenergic α2A
Reply with just the number (in %).

input: If you can, please state the reported inhibition at 0.1 µM value of Cc1ccc2c(c1)c1c(n2-c2cscc2-c2c(C)noc2C)CCN(C)C1 .
output: 67

input: If you can, please state the reported inhibition at 0.1 µM value of Cc1ccc2c(c1)c1c(n2-c2ccccc2-c2cnc(N(C)C)nc2)CCN(C)C1 .
output: 74

input: If you can, please state the reported inhibition at 0.1 µM value of Cc1ccc2c(c1)c1c(n2-c2ccc(-c3cnn(C)c3)cn2)CCN(C)C1 .
output: 38

input: If you can, please state the reported inhibition at 0.1 µM value of Cc1ccc2c(c1)c1c(n2-c2cscc2-c2sccc2C)CCN(C)C1 .
output: 98
